Values were extracted from patent US20210380702A1.

MEASUREMENT_TARGET: T1, recombinant cynomolgus monkey PD-L1 with a C-terminal myc-myc-hexahistidine tag (cynomolgus monkey (Macaca fascicularis))
T1 construct: also called MfPD-L1-MMH; MfPD-L1-MMH Monomer
T1 sequence (chain, as listed by the source limits assumed): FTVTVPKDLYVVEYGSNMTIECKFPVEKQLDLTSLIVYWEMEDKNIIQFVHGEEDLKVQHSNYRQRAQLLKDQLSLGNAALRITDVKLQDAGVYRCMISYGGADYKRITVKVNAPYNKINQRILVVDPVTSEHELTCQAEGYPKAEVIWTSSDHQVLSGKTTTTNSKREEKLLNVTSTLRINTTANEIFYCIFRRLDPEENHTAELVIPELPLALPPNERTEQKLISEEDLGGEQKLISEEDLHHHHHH
ASSAY_INFO: SPR (Biacore), mAb captured, 37C
Would you kindly list t1/2 for each of these binders?
Dear colleague, please return just the value in s, with no unit written.

# input Name the recorded t1/2 for H1H9329P (antibody, human IgG1, V domains shown) VH: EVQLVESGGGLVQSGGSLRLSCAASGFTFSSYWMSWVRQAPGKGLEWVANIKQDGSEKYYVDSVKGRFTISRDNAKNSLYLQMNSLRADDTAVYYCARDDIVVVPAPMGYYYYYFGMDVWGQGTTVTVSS VL: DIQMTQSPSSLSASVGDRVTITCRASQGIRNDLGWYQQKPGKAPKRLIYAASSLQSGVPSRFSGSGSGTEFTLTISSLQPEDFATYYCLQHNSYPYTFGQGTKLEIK .
# output 1.8

# input Name the recorded t1/2 for H2aM8310N (antibody, mouse IgG2, V domains shown, also called H2M8310N) VH: QVQLVQSGAEVKKPGASVQVSCKASGYSFTGYYIHWVRQAPGQGLEWMGWINPNSGTKKYAHKFQGRVTMTRDTSIDTAYMILSSLISDDTAVYYCARDEDWNFGSWFDSWGQGTLVTVSS VL: DIVMTQTPLSSPVTLGQPASISCRSSQTLVHGDGNTYLSWIQQRPGQPPRLLIYKVSNQFSGVPDRFSGSGAGTDFTLKISRVEAEDVGLYFCMQATHFPITFGQGTRLEIK .
# output 660

# input Name the recorded t1/2 for H2aM8323N (antibody, mouse IgG2, V domains shown, also called H2M8323N) VH: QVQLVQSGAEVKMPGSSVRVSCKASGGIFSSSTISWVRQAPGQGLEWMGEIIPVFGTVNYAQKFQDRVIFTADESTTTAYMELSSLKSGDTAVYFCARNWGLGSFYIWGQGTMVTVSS VL: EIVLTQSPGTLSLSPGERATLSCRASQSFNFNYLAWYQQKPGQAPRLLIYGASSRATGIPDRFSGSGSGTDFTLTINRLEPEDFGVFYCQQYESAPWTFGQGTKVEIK .
# output 24
